Known melting point of a selection of compounds

compound	melting point
Cc1cccc(NC(=O)COc2ccc(Cl)cc2/C=c2\sc3ncnn3c2=O)c1 [Compound 2g]	260 to 262 °C
COc1ccccc1/C=c1\sc2ncnn2c1=O [Compound 2b]	196 to 198 °C
O=c1/c(=C/N2CCCCC2)sc2ncnn12 [Compound 6b]	190 to 192 °C
CCOC(=O)N1CCN(/C=c2\sc3ncnn3c2=O)CC1 [Compound 6d]	204 to 206 °C
O=c1/c(=C/N2CCN(CCO)CC2)sc2ncnn12 [Compound 6c]	189 to 192 °C
O=c1/c(=C/N2CCc3ccccc32)sc2ncnn12 [Compound 6a]	> 250 °C
